# TEST_SYSTEM: T1, TrKA receptor protein coated in ELISA (Examples 11 and 16) (human, UniProt P04629 33-423, limits assumed)
# T1 construct: also called Human-TrKA
# T1 sequence (P04629 33-423 limits assumed): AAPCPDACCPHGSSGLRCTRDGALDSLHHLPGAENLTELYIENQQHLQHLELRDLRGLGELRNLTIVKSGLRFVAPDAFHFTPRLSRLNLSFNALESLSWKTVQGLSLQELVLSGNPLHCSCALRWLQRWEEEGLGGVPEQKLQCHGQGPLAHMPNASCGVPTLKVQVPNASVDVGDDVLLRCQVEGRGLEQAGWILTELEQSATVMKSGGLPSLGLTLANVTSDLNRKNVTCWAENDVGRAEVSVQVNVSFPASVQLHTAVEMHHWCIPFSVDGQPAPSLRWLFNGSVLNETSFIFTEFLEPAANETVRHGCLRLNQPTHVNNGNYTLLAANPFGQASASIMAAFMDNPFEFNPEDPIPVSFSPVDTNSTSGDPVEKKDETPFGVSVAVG
# PROCEDURE_TEXT: competition ELISA: antibody titrated against biotinylated NGF binding to TrkA, OD450
Listing: IC50 of selected binders
Field format: number, assumed µg/mL, no unit text.

Example entries begin here.
>>> result_number("2A5 chimeric antibody (antibody, human IgG4 S228P, kappa, F234A L235A, V domains shown, expressed in CHO cells) VH: EVQLQQSGPELVKPGASMKISCKASGYSFTGYTMNWVKQSHGKNLEWIGLINPYNGGTNYNQKFKGKATLTVDKSSSTAYMELLSLTSEDSAVYYCAFSYYGSRGFYFDYWGQGTTLTVSS VL: QIVLTQSPALMSASPGEKVTMTCSATSSVSYIYWYQQKPRSSPKPWIYLTSNLASGVPARFSGSGSGTSYSLTISSMEAEDAATYYCQQWSSNPPTFGGGTKLEIKR")
1.06
>>> result_number("4H4 chimeric antibody (antibody, human IgG4 S228P, kappa, F234A L235A, V domains shown, expressed in CHO cells) VH: EVQLQQSGPELVKPGASMKISCKASGYSFTGYTMNWVKQSHGKNLEWIGLINPYNGGTRYNQKFKGKATLTVDKSSSTAYMELLSLTSEDSAVYYCASSSYRNDGNWYFDVWGAGTTVTVSS VL: DIVMTQSPAIMSASPGEKVTMTCSASSSVSYMHWYQQKSGTSPKRWIYDTSKLASGVPARFSGSGSGTSYSLTISSMETEDAATYYCQQWSSNPPTFGGGTKLELKR")
0.551

Attention now shifts to the item below.
Lab book: IC50 of 2008 chimeric antibody (antibody, human IgG4 S228P, kappa, F234A L235A, V domains shown, also called 20C8) VH: EVLLQQSGPELVKPGASMKISCKASVYSFTAYTMNWVKQSHGKNLEWIGLINPHNGGTRYNQKFKGKATLTLDKSSSTAYMDLLSLTSEDSAVYYCAISRYGSSSFYFDVWGAGTTVAVSS VL: QIVLSQSPAILSASPGEKVTMTCRASSSISYMHWYQQKPGSSPKPWISATSNLASGVPARFSGSGSGTSYSLTISGVEAEDAATYYCQQWSSNPPTFGGGTNLEIKR noted as 0.31
